- system_tested: T1, cynomolgus IgE (recombinant chimaeric D12 variable region and cynomolgus IgE constant region) (cynomolgus monkey (constant region); …)
- T1 construct: The entries may hold a leader peptide; also called cyno IgE; cynomolgus monkey IgE
- assay_protocol: SPR BIAcore; IgG captured on protein G', IgE analyte, bivalent analyte fit; geomean

[
  {
    "binder": "Antibody 8 IgG (antibody, V domains shown, Whole human IgG (section 1.4, IgG1)) VH: QVQLVQSGAEVKKPGATVKLSCKVYGYIFTDYNIYWVRQAPGKGLEWMGLIDPDNGETFYAEKFQGRATMTADTSSDRAYMELTSLTFEDTATYYCATVLGRWIKGGYDYWGRGTLVTVSS VL: QSVLTQPPSVSGAPGQRVTISCTGSSSNIGAGYDVHWYQQLPGTAPKLLIYDNFNRPSGVPDRFSGSKSGTSASLAIIGLQTEDEADYYCQSYDSPTHTSPFGTGTKLTVL",
    "units_text": "nM",
    "Kd": 6.3
  },
  {
    "binder": "Antibody 20 IgG (antibody, V domains shown, Whole human IgG (section 1.4, IgG1)) VH: QVQLVQSGAEVKKPGATVKLSCKVYGYIFTDYNIYWVRQAPGKGLEWMGLIDPDNGETFYAEKFQGRATMTADTSSDRAYMELTSLTFEDTATYYCATVMGKWIKGGYDYWGRGTLVTVSS VL: QSVLTQPPSVSGAPGQRVTISCTGSSSNIGAGYDVHWYQQLPGTAPKLLIYDNFNRPSGVPDRFSGSKSGTSASLAIIGLQTEDEADYYCQSYDSSTSSSPFGTGTKLTVL",
    "units_text": "nM",
    "Kd": 10.5
  },
  {
    "binder": "Antibody 13 IgG (antibody, V domains shown, Whole human IgG (section 1.4, IgG1)) VH: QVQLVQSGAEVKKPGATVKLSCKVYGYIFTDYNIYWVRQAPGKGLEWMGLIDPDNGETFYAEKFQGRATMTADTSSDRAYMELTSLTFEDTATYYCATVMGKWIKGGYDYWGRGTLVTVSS VL: QSVLTQPPSVSGAPGQRVTISCTGSSSNIGAGYDVHWYQQLPGTAPKLLIYDNFNRPSGVPDRFSGSKSGTSASLAIIGLQTEDEADYYCQSYDSNILYSPFGTGTKLTVL",
    "units_text": "nM",
    "Kd": 9.9
  },
  {
    "binder": "Antibody 4 IgG (antibody, V domains shown, Whole human IgG (section 1.4, IgG1)) VH: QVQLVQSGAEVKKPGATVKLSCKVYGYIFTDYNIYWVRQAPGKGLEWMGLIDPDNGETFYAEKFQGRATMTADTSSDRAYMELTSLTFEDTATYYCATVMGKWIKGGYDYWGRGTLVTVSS VL: QSVLTQPPSVSGAPGQRVTISCTGSSSNIGAGYDVHWYQQLPGTAPKLLIYDNFNRPSGVPDRFSGSKSGTSASLAIIGLQTEDEADYYCQSYDSRGGHSPFGTGTKLTVL",
    "units_text": "nM",
    "Kd": 8
  }
]
